Target: HNF4alpha2 (COS-7 nuclear extract) (Homo sapiens, UniProt P41235 1-474)
Sequence: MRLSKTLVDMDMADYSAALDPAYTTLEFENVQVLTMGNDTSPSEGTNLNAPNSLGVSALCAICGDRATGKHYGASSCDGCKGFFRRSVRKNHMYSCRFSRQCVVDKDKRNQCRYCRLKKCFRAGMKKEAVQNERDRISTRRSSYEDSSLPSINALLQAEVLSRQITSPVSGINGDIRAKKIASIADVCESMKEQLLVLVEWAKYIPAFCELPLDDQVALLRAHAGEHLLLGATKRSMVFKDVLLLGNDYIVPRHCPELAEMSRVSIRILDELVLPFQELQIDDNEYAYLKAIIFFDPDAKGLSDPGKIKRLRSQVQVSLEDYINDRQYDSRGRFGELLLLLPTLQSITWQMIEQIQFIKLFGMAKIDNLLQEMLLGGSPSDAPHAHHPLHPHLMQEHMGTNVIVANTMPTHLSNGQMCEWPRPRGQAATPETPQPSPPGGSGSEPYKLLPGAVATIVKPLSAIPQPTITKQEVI
Test: protein-binding microarray; COS-7 nuclear extract on double-stranded Agilent 4x180k PBM; binding buffer, salt, pH and temperature not given in the material; high values mean tight binding
Settings: chain copies: 2; label: 3' end of strand 1 on the slide; dsDNA, one strand shown
Over roughly 18,000 sequences, “log2 normalized intensity” has its median near 0.39; the highest 2% begin near 6.6. For the sample, the highest values were picked, then their nearest neighbours and some sequences at random.
Decide using binding signal alone. Strictly below 3 log2 normalized intensity: label 1. Equal to or above 3 log2 normalized intensity: label 0.

[in] Just wondering, is binding signal of GGTGTTAAAATAACGACCTTTGGGCTAAAAGCCTAGGGAGATTAGAGTATCGGTCGA below 3 log2 normalized intensity?
[out] label 0

[in] Just wondering, is binding signal of CCCCTAAAGGAGGCAAGGTCCAAACTTCTCGCCTAGGGAGATTAGAGTATCGGTCGA below 3 log2 normalized intensity?
[out] label 1

[in] Just wondering, is binding signal of CATGAAGGTCTCCTTGACTTCAAAGGCATTGCCTAGGGAGATTAGAGTATCGGTCGA below 3 log2 normalized intensity?
[out] label 1

[in] Just wondering, is binding signal of GGCATTCTGACCTTTGTCTCCAGGCAAACTGCCTAGGGAGATTAGAGTATCGGTCGA below 3 log2 normalized intensity?
[out] label 0

[in] Just wondering, is binding signal of CCATATCACATTTTAAGGTCTGGCATTCTTGCCTAGGGAGATTAGAGTATCGGTCGA below 3 log2 normalized intensity?
[out] label 1

[in] Just wondering, is binding signal of CCCCACCCCCACTGCCTGACCCCAAGTAATGCCTAGGGAGATTAGAGTATCGGTCGA below 3 log2 normalized intensity?
[out] label 0

[in] Just wondering, is binding signal of AGATGGTCTCAGGTGGAGATAAGGAATTTGGCCTAGGGAGATTAGAGTATCGGTCGA below 3 log2 normalized intensity?
[out] label 1

[in] Just wondering, is binding signal of GATCCTCCCACTTCAGCCTCCCGAGTAGTTGCCTAGGGAGATTAGAGTATCGGTCGA below 3 log2 normalized intensity?
[out] label 1

[in] Just wondering, is binding signal of CTGCAGATTGACTCAGGCATTCTGACCTTTGCCTAGGGAGATTAGAGTATCGGTCGA below 3 log2 normalized intensity?
[out] label 0

[in] Just wondering, is binding signal of CCTTTTATTTTCTTATCTGCCTAGGCATTTGCCTAGGGAGATTAGAGTATCGGTCGA below 3 log2 normalized intensity?
[out] label 1

[in] Just wondering, is binding signal of ACTCAGGCATTCTGACCTTTGTCTCCAGGCGCCTAGGGAGATTAGAGTATCGGTCGA below 3 log2 normalized intensity?
[out] label 0

[in] Just wondering, is binding signal of AACACAGGTGACCTTTGCTCCGGTTCCCAAGCCTAGGGAGATTAGAGTATCGGTCGA below 3 log2 normalized intensity?
[out] label 0

[in] Just wondering, is binding signal of AAGCAATGGCTACCAAGGAGTGGACTGTTCGCCTAGGGAGATTAGAGTATCGGTCGA below 3 log2 normalized intensity?
[out] label 1

[in] Just wondering, is binding signal of CTCCCTTTGATGCGGTCAGAGTTCATTTGGGCCTAGGGAGATTAGAGTATCGGTCGA below 3 log2 normalized intensity?
[out] label 0

[in] Just wondering, is binding signal of TTTTAAGGTCTGGCATTCTTTTTGACCTTTGCCTAGGGAGATTAGAGTATCGGTCGA below 3 log2 normalized intensity?
[out] label 0

[in] Just wondering, is binding signal of GGCGTGACCCCCACTGCCTGCCTGCCAACTGCCTAGGGAGATTAGAGTATCGGTCGA below 3 log2 normalized intensity?
[out] label 1

[in] Just wondering, is binding signal of GACATAACACAGGTGACCTTTGCTCCGGTTGCCTAGGGAGATTAGAGTATCGGTCGA below 3 log2 normalized intensity?
[out] label 0

[in] Just wondering, is binding signal of TAAAACTGCAGATTGACTCAGGCATTCTGAGCCTAGGGAGATTAGAGTATCGGTCGA below 3 log2 normalized intensity?
[out] label 1

[in] Just wondering, is binding signal of CTAAGCAGGCACATTCCAGGACCTTTGCTCGCCTAGGGAGATTAGAGTATCGGTCGA below 3 log2 normalized intensity?
[out] label 0

====

Target: HNF4alpha2 (COS-7 nuclear extract) (Homo sapiens, UniProt P41235 1-474)
Sequence: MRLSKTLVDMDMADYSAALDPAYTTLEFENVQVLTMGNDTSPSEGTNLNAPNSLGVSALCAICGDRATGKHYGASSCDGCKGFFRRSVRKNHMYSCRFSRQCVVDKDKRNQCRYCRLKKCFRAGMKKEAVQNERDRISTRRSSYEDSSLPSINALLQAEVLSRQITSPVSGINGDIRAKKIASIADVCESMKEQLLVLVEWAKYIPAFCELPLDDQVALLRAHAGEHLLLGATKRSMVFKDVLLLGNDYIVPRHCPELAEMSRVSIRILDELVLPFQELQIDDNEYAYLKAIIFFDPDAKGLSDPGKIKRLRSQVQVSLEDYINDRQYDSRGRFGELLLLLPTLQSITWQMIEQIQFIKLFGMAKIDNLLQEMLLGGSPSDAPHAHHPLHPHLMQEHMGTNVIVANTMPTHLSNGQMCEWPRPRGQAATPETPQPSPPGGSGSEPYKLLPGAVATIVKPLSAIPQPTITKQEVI
Test: protein-binding microarray; COS-7 nuclear extract on double-stranded Agilent 4x180k PBM; binding buffer, salt, pH and temperature not given in the material; high values mean tight binding
Conditions: chain copies: 2; label: 3' end of strand 1 on the slide; dsDNA, one strand shown
Over roughly 18,000 sequences, “log2 normalized intensity” has its median near 0.39; the highest 2% begin near 6.6. The sample as a whole holds a higher share of the highest values than the screen did.
Provide the recorded binding signal for the entries that follow.
Answer with a number only, understood to be in log2 normalized intensity.

[in] Note down binding signal recorded for TTCCAGAGCCTTCAAAGGAAAGCAGGTGTTGCCTAGGGAGATTAGAGTATCGGTCGA
[out] 0.55

[in] Note down binding signal recorded for CCTTTGGTGCCTCTTTTTTCTTGTTGACTTGCCTAGGGAGATTAGAGTATCGGTCGA
[out] 2.44

[in] Note down binding signal recorded for ACTCATTTCACATTGGTGCCCTTTGCCTTTGCCTAGGGAGATTAGAGTATCGGTCGA
[out] 3.97

[in] Note down binding signal recorded for CAAAGTCCGCTTGCCTGAGGGTCATGACTAGCCTAGGGAGATTAGAGTATCGGTCGA
[out] 2.26

[in] Note down binding signal recorded for CTTGGCTGTGCTGCCCTTTGCCCTTTGGGAGCCTAGGGAGATTAGAGTATCGGTCGA
[out] 7.11

[in] Note down binding signal recorded for AAGGGCTGAGGTTAAAGTCCACATTCTTTAGCCTAGGGAGATTAGAGTATCGGTCGA
[out] 5.76

[in] Note down binding signal recorded for CATCTGAACTCTTCATGGACTCCTCTTATCGCCTAGGGAGATTAGAGTATCGGTCGA
[out] 1.6

[in] Note down binding signal recorded for GTGGTCATGTAGGTGTCTCAGGAATGTCCTGCCTAGGGAGATTAGAGTATCGGTCGA
[out] 1.85

[in] Note down binding signal recorded for TCTTCTTCTGGGGACTTCGGTCTTTTTTCTGCCTAGGGAGATTAGAGTATCGGTCGA
[out] 2.18

[in] Note down binding signal recorded for TGAACTTTGAACACCTCTTCTTTCTTCTCTGCCTAGGGAGATTAGAGTATCGGTCGA
[out] 3.92

[in] Note down binding signal recorded for GTTATCTATGGAACATGGACTTTGAACCTCGCCTAGGGAGATTAGAGTATCGGTCGA
[out] 10.3

[in] Note down binding signal recorded for ATCTGGTGGTGGTTCTTGTTTCATTGCACAGCCTAGGGAGATTAGAGTATCGGTCGA
[out] 1.84

[in] Note down binding signal recorded for CCTCCCTCCATGCTGTAGATTGTGGAATGTGCCTAGGGAGATTAGAGTATCGGTCGA
[out] 1.81

[in] Note down binding signal recorded for CAGAAAAATGGAGCAGCTCTGTATTGAGATGCCTAGGGAGATTAGAGTATCGGTCGA
[out] -0.99

[in] Note down binding signal recorded for CTTTTGGTATGCAAGGCATGGTGCTTCGCAGCCTAGGGAGATTAGAGTATCGGTCGA
[out] 1.26

[in] Note down binding signal recorded for AAGCTTCACAAAGGGCTGAGGTTAAAGTCCGCCTAGGGAGATTAGAGTATCGGTCGA
[out] 6.22

[in] Note down binding signal recorded for ACATTTTTATCCTTTTTTGAAGGTTAAAGTGCCTAGGGAGATTAGAGTATCGGTCGA
[out] 2.66

[in] Note down binding signal recorded for ACCCTGAATGTGTGCTGGCCTGGTTCCTTCGCCTAGGGAGATTAGAGTATCGGTCGA
[out] 0.887

[in] Note down binding signal recorded for TTTCTCTTTTGACCTTTGGACTTTCACATTGCCTAGGGAGATTAGAGTATCGGTCGA
[out] 10.5
